- assayTarget: human serum albumin (HSA) (Homo sapiens)
- setupConditions: human, immobilized hsa column, pH 7.4
quantityName: log k HSA
Just the number, please.

Known results for molecules:
molecule	assayTarget	log k HSA
CCCN1C[C@H](CSC)C[C@@H]2c3cccc4[nH]cc(c34)C[C@H]21 [pergolide]	human serum albumin (HSA) (Homo sapiens)	-1.15
COc1cc(N)c(Cl)cc1C(=O)NC1CCN(CCCOc2ccc(F)cc2)CC1OC (stereo not shown) [cisapride]	human serum albumin (HSA) (Homo sapiens)	0.69
CCC[C@H](N[C@@H](C)C(=O)N1[C@H](C(=O)O)C[C@@H]2CCCC[C@@H]21)C(=O)OCC [perindopril]	human serum albumin (HSA) (Homo sapiens)	-0.31

Shifting focus to the molecule that follows.
Query :: State the recorded log k HSA for this entry: OCCOCCN1CCN(C2=Nc3ccccc3Sc3ccccc32)CC1 [quetiapine]
Result :: 0.39

---

- assayTarget: human serum albumin (HSA) (Homo sapiens)
- setupConditions: human, immobilized hsa column, pH 7.4
log k HSA values for the molecules below.
Lab note: jot down the number only; don't add units.

Query :: Using the record for COc1ccc(CCN2CCC(Nc3nc4ccccc4n3Cc3ccc(F)cc3)CC2)cc1 , report its log k HSA.
Result :: 1.12

Query :: Follow-up item: CSc1ccc2c(c1)N(CCC1CCCCN1C)c1ccccc1S2 (centres unmarked)
Result :: 1.27

Query :: Another: COc1ccnc(C[S+]([O-])c2nc3ccc(OC(F)F)cc3[nH]2)c1OC (centres unmarked)
Result :: 0.32

Query :: Further, for CN[C@H]1CC[C@@H](c2ccc(Cl)c(Cl)c2)c2ccccc21 ?
Result :: 1.12

Query :: Repeat for the following molecule: CCOC(=O)[C@H](CCc1ccccc1)N[C@@H](C)C(=O)N1Cc2ccccc2C[C@H]1C(=O)O
Result :: 0.49

---

- assayTarget: human serum albumin (HSA) (Homo sapiens)
- setupConditions: human, immobilized hsa column, pH 7.4
quantityName: log kHSA
// keep it numeric: no unit symbol after the value

compound	log kHSA
CN(C)CCC=C1c2ccccc2COc2ccccc21 [doxepin]	0.63
CO[C@H]1/C=C/O[C@@]2(C)Oc3c(C)c(O)c4c(O)c(c(/C=N/N5CCN(C)CC5)c(O)c4c3C2=O)NC(=O)/C(C)=C\C=C\[C@H](C)[C@H](O)[C@@H](C)[C@@H](O)[C@@H](C)[C@H](OC(C)=O)[C@@H]1C	-1.53

Query :: Can you share its log kHSA? I mean this compound: CN1CCC[C@@H]1Cc1c[nH]c2ccc(CCS(=O)(=O)c3ccccc3)cc12
Result :: 0.58

Query :: Another compound: CC[C@@H](CO)NCCN[C@@H](CC)CO
Result :: 0.24

---

- assayTarget: bovine serum albumin (BSA) (Bos taurus, UniProt P02769)
- Construct: purchased Sigma Aldrich
- Sequence (P02769 25-607): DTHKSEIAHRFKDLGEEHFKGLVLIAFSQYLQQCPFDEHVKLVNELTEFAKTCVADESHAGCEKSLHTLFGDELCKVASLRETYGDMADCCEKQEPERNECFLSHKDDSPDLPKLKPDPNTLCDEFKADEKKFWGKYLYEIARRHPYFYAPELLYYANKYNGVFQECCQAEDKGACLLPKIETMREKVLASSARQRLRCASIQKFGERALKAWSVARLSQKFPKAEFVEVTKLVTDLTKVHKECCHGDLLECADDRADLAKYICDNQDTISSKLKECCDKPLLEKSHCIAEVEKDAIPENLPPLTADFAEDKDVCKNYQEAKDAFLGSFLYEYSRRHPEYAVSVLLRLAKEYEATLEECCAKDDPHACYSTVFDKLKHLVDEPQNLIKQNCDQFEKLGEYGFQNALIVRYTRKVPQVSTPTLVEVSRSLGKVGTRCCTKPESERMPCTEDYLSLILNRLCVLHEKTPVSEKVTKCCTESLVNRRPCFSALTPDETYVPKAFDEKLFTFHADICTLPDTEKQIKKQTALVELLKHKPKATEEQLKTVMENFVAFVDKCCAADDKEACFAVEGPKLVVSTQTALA
- protocolText: NP TLC on plates impregnated with bovine serum albumin
- Type: binding
- setupConditions: Table S8, external group
Reported NP (Rf value from the NP plate impregnated with 2 mg/mL BSA solution) values follow for various compounds
Please state the value as a number alone, without comment.

Consider the worked cases shown below.
compound	assayTarget	number
CCOC(=O)C1=C(C)NC(C)=C(C(=O)OC)C1c1cccc([N+](=O)[O-])c1 (stereo not shown) [nitrendipine]	bovine serum albumin (BSA) (Bos taurus, UniProt P02769)	0.97
CN(C)CCC=C1c2ccccc2COc2ccccc21 [doxepin]	bovine serum albumin (BSA) (Bos taurus, UniProt P02769)	0.31
COc1cc(Cc2cnc(N)nc2N)cc(OC)c1OC [trimethoprim]	bovine serum albumin (BSA) (Bos taurus, UniProt P02769)	0.59
CC[C@@H](CO)NCCN[C@@H](CC)CO [ethambutol]	bovine serum albumin (BSA) (Bos taurus, UniProt P02769)	0.21
CO[C@H]1/C=C/O[C@@]2(C)Oc3c(C)c(O)c4c(O)c(c(/C=N/N5CCN(C)CC5)c(O)c4c3C2=O)NC(=O)/C(C)=C\C=C\[C@H](C)[C@H](O)[C@@H](C)[C@@H](O)[C@@H](C)[C@H](OC(C)=O)[C@@H]1C [rifampicin]	bovine serum albumin (BSA) (Bos taurus, UniProt P02769)	0.77

Query :: Reported NP (Rf value from the NP plate impregnated with 2 mg/mL BSA solution) for bovine serum albumin (BSA) (Bos taurus, UniProt P02769), given CC(N)C12CC3CC(CC(C3)C1)C2 (stereo not shown) [rimantadine] ?
Result :: 0.92

Query :: Input CCC1(c2ccccc2)C(=O)NCNC1=O [primidone]
Result :: 0.93

---

- assayTarget: human serum albumin (HSA) (Homo sapiens, UniProt P02768)
- Sequence (P02768 25-609): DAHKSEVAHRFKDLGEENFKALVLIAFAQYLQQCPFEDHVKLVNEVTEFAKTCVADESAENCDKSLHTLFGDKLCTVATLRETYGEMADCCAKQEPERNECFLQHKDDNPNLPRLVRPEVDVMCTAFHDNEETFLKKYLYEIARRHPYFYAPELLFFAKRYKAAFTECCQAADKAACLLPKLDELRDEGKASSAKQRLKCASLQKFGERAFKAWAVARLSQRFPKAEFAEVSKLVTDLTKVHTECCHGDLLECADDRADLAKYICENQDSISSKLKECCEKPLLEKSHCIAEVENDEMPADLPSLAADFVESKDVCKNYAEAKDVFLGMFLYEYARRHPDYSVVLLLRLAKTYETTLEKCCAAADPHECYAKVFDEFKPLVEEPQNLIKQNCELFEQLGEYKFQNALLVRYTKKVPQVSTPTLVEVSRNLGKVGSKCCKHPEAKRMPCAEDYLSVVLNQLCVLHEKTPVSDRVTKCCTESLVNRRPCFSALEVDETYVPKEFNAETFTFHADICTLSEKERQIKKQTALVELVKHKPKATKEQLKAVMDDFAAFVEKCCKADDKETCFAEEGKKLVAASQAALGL
- setupConditions: Table S5, retention factor, HSA column, pH 7.4, 25 degrees Celsius
Measured k HSA by item
Form field (numeric): enter value without unit.

Recorded k HSA, per entry:
compound	k HSA
COc1cc(N)c(Cl)cc1C(=O)NC1CCN(CCCOc2ccc(F)cc2)CC1OC (stereo not shown) [cisapride]	4.88
CN[C@H]1CC[C@@H](c2ccc(Cl)c(Cl)c2)c2ccccc21 [sertraline]	13.19
C[C@]12C=CC(=O)C=C1CC[C@@H]1[C@@H]2[C@@H](O)C[C@@]2(C)[C@H]1CC[C@]2(O)C(=O)CO [prednizolone]	0.52
CN(C)CCOC(c1ccccc1)c1ccccc1 [diphenhydramin]	1.88
CCCN1C[C@H](CSC)C[C@@H]2c3cccc4[nH]cc(c34)C[C@H]21 [pergolide]	0.07
CC[C@H]1OC(=O)[C@H](C)[C@@H](O[C@H]2C[C@@](C)(OC)[C@@H](O)[C@H](C)O2)[C@H](C)[C@@H](O[C@@H]2O[C@H](C)C[C@H](N(C)C)[C@H]2O)[C@](C)(O)C[C@@H](C)/C(=N\OCOCCOC)[C@H](C)[C@@H](O)[C@]1(C)O [roxitromicin]	1.03

The record that follows has no k HSA shown yet.
Query :: Bench note: what k HSA did CC(=O)OCC(=O)[C@@]1(O)CC[C@H]2[C@@H]3CCC4=CC(=O)CC[C@]4(C)[C@H]3[C@@H](O)C[C@@]21C [hydrocortisone acetate] show?
Result :: 0.66

---

- protocolText: HPLC on immobilized artificial membrane column (HPLCIAM)
- Type: physicochemical
- setupConditions: Table S5, IAM column, pH 7.4
quantityName: log k IAM

Example results:
compound	log k IAM
O=C1NC(=O)C(c2ccccc2)(c2ccccc2)N1	0.25
OC(CCN1CCCCC1)(c1ccccc1)C1CC2C=CC1C2 (stereo not shown)	1.62

Query :: Query (compound): C=CCN1C[C@H](C(=O)N(CCCN(C)C)C(=O)NCC)C[C@@H]2c3cccc4[nH]cc(c34)C[C@H]21 ; field requested: log k IAM
Result :: 1.23

Query :: Please do the same for OCCOCCN1CCN(C(c2ccccc2)c2ccc(Cl)cc2)CC1 (stereo not shown) [hydroxyzine] as well.
Result :: 1.14

Query :: Also CC(=O)OCC(=O)[C@@]1(O)CC[C@H]2[C@@H]3CCC4=CC(=O)CC[C@]4(C)[C@H]3[C@@H](O)C[C@@]21C [hydrocortisone acetate] ?
Result :: 0.45

Query :: Lookup Nc1nnc(-c2cccc(Cl)c2Cl)c(N)n1
Result :: -0.15

Query :: Moving on to the next compound: Cc1ccc(-c2cc(C(F)(F)F)nn2-c2ccc(S(N)(=O)=O)cc2)cc1
Result :: 1.70

---

- protocolText: HPLC on immobilized artificial membrane column (HPLCIAM)
- Assay type: physicochemical
- setupConditions: Table S5, retention factor, IAM column, phosphate buffer pH 7.4/acetonitrile 80:20
Labels assigned by k IAM range: Low (below 2), Mid (2 to below 6), High (6 or more)

Query :: Hi, small favor: classify CC[C@H]1OC(=O)[C@H](C)[C@@H](O[C@H]2C[C@@](C)(OC)[C@@H](O)[C@H](C)O2)[C@H](C)[C@@H](O[C@@H]2O[C@H](C)C[C@H](N(C)C)[C@H]2O)[C@](C)(O)C[C@@H](C)CN(C)[C@H](C)[C@@H](O)[C@]1(C)O [azithromycin] by its k IAM when you get a moment.
Result :: Low

Query :: Then O=C(N[C@H](CO)[C@H](O)c1ccc([N+](=O)[O-])cc1)C(Cl)Cl [chloramphenikol] ?
Result :: Low

Query :: Further, for Cc1ccc(-c2nc3ccc(C)cn3c2CC(=O)N(C)C)cc1 [zolpidem] ?
Result :: Mid

Query :: Moving on to the next compound: CO/N=C(\C(=O)N[C@@H]1C(=O)N2C(C(=O)O)=C(COC(N)=O)CS[C@H]12)c1ccco1 [cefuroxime]
Result :: Low

Query :: Moving on to C=CCN1C[C@H](C(=O)N(CCCN(C)C)C(=O)NCC)C[C@@H]2c3cccc4[nH]cc(c34)C[C@H]21 [carbegoline]
Result :: High

Query :: Would you kindly repeat that for CCOCCn1c(C2CCN(CCc3ccc(C(C)(C)C(=O)O)cc3)CC2)nc2ccccc21 [bilastine] ?
Result :: Low

Query :: Same lookup for CN(C)CCc1c[nH]c2ccc(C[C@H]3COC(=O)N3)cc12 [zolmitriptane] , please.
Result :: Mid

Query :: Try O=C1Nc2ccc(Cl)cc2C(c2ccccc2)=NC1O (stereo not shown) [oxazepam] next.
Result :: Mid

Query :: Field entry: C[C@H]1c2cccc(O)c2C(=O)C2=C(O)[C@]3(O)C(=O)C(C(N)=O)=C(O)[C@@H](N(C)C)[C@@H]3[C@@H](O)[C@@H]21 [doxycycline]
Result :: Low

The reported numbers originate from paper PMC9182007.
